# credit: PubChem BioAssay (NCI)

System: HT29 colon
assay.explanation: NCI-60 one-dose screen, 48 h
experimental.conditions: 10 µM unless noted
About 83,000 compounds went through this panel and 20% of them were active in at least one assay; those are over-represented in the sample as a whole. Active and inactive are the calls of the source. How the source made its calls: active means growth percent below 10; inactive means the rest.
Log the outcome using a class from 1 (active), 0 (inactive)

Below are worked cases with known answers.
>>> class("CS(=O)(=O)Nc1cc(-c2ccc3ncnc(Nc4cccc(Cl)c4F)c3c2)cnc1Cl")
0
>>> class("Cc1nc(/N=C(\\N)NC(=O)Nc2ccccc2Cl)sc1C")
0

Task: What was the test verdict on `c1ccc(-c2nc3sc(-c4ccccc4)cn3n2)cc1` ?
Output: 0

Task: What was the test verdict on `COc1cccc2c(=O)c3c(sc12)c(NCCCN)nc1ccccc13` ?
Output: 1

Task: What was the test verdict on `NCCNc1nc2ccccc2c2c(=O)c3cc(F)ccc3sc12` ?
Output: 0

Task: What was the test verdict on `N#Cc1ccc(NC(=O)c2sc3nc4c(cc3c2N)C(=O)CCC4)cc1` ?
Output: 0

Task: What was the test verdict on `CS(=O)(=O)N(c1cc(-c2ccc3ncnc(Nc4ccc(F)c(Cl)c4)c3c2)cnc1Cl)S(C)(=O)=O` ?
Output: 0

Task: What was the test verdict on `NCCOc1ncccc1/C=C1\c2ccccc2-c2ccc(C(F)F)cc21` ?
Output: 0

Task: What was the test verdict on `COc1ccc2sc3c(NCCCNCCO)nc4ccccc4c3c(=O)c2c1` ?
Output: 1

Task: What was the test verdict on `O=C(O)c1cn(C2CC2)c2cc(N3CCN(C(=O)Nc4nc(-c5ccccc5)cs4)CC3)c(F)cc2c1=O` ?
Output: 1

Task: What was the test verdict on `O=c1n(Cc2ccc3ccccc3c2)ccn1Cc1ccc2ccccc2c1` ?
Output: 0

Task: What was the test verdict on `Cc1ccc(-c2cnc3sc(C(=O)NCCc4ccccc4)c(C)n23)cc1` ?
Output: 0

Task: What was the test verdict on `O=C(Nc1ccc(-c2nc(-c3cccc(OCCN4CCOCC4)c3)c(-c3ccnc(Br)c3)[nH]2)cc1)c1ccccc1` ?
Output: 1

Task: What was the test verdict on `CCN(CC)CCNc1nc2ccccc2c2c(=O)c3cc(Cl)ccc3sc12` ?
Output: 0

Task: What was the test verdict on `CSc1ncccc1C(=O)OCC(=O)Nc1oc(C)c2c(C)n[nH]c(=O)c12` ?
Output: 0

Task: What was the test verdict on CC(=O)OC[C@H]1OC(Sc2sc(C(=O)c3ccc(C)cc3)c(N)c2-c2nc3ccccc3s2)[C@H](OC(C)=O)[C@@H](OC(C)=O)[C@@H]1OC(C)=O (stereo not given in full) ?
Output: 0

Task: What was the test verdict on COc1cc(C(=O)N2N=C(c3ccc(S(C)(=O)=O)cc3)CC2c2ccco2)cc(OC)c1OC (stereo not given) ?
Output: 0

Task: What was the test verdict on c1cc2nc(-c3cn[nH]c3)c3c(c2cc1-c1cn[nH]c1)C1CCC3C1 (stereo not given) ?
Output: 0

Task: What was the test verdict on `CCc1cccc2c1S/C(=C/c1ccc(Cl)cc1)C2=O` ?
Output: 0

Task: What was the test verdict on O=C1CCC(C(=O)NCCNCCNC(=O)C2CCC(=O)N2)N1 (stereo not given) ?
Output: 0

Task: What was the test verdict on `Fc1cc2c(cc1Cl)N(c1ncnc3ccc(-c4cnc5cnccn45)cc13)CC2` ?
Output: 0

Task: What was the test verdict on CC1(C)C2CC1C1(/C=N\Nc3ccccc3)C(C2)C(C#N)(C#N)C1(C#N)C#N (stereo not given) ?
Output: 0

Task: What was the test verdict on `COc1cc(C)c(Cc2cnc(N)nc2N)cc1OC` ?
Output: 0
